Reported Ki values for the following molecules.
Biological target: human IRAK4 (Homo sapiens (Human))
Experiment: IRAK4 kinase inhibition, Transcreener fluorescence polarization (ADP)
Format: biochemical
Conditions: recombinant full-length His6-IRAK4 1.25 nM; 125 uM ATP; 125 uM peptide; 90 min; ATP Km 642 uM; read-out: IRAK4 Ki
Protocol: Compounds were assayed for inhibition of human IRAK4 and IRAK1 catalytic activity using recombinant enzyme produced from insect cells. Full-length IRAK4 protein, carrying an N-terminal His6-Tag, was obtained from Life Technologies (Carlsbad, Calif., USA). The IRAK1 construct was produced internally and was comprised of IRAK1 residues Arg194 to Ser712, preceded by an NH2-terminal His6 tag and the coding sequence for glutathione-S-transferase. […]
Counter-ions that a name gives are not always drawn.

| MOLECULE | Ki (nM) |
| --- | --- |
| CC(C)(O)c1cc2c(cc1NC(=O)c1cnn3cccnc13)CN(C[C@@H](F)C(C)(C)O)C2=O [Example 148] | 16 |
| CC(C)(O)[C@H](F)CN1Cc2cc(NC(=O)c3cnn4cccnc34)c(OC3CCNCC3)cc2C1=O [Example 70] | 0.7 |
| Cc1nocc1CN1CCN(c2cc3c(cc2NC(=O)c2cnn4cccnc24)CC(C)(C)O3)CC1 [Example 14, hydrochloride] | 5.2 |
| CC(C)(O)[C@H](F)CN1Cc2cc(NC(=O)c3cnn4ccc(Cl)nc34)c(N3CCOCC3)cc2C1=O [Example 102] | 6.5 |

---

Target: human IRAK4 (Homo sapiens (Human), UniProt Q9NWZ3)
Sequence (Q9NWZ3 whole entry): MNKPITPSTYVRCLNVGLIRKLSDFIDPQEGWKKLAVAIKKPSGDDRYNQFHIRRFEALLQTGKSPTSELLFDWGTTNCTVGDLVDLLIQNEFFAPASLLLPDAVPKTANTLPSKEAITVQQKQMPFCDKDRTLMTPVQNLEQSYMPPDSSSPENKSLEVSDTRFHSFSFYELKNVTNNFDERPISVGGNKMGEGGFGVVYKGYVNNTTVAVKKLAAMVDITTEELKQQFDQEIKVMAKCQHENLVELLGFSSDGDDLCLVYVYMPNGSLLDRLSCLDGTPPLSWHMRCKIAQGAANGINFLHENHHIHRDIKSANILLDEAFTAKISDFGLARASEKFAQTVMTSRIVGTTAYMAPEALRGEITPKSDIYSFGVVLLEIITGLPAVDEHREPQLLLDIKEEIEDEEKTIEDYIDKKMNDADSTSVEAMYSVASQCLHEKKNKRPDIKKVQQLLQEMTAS
Test: IRAK4 kinase inhibition, Transcreener fluorescence polarization (ADP)
Type: biochemical
Settings: recombinant full-length His6-IRAK4 1.25 nM; 125 uM ATP; 125 uM peptide; 90 min; ATP Km 642 uM; read-out: IRAK4 Ki
Counter-ions that a name gives are not always drawn.
Consider the cut-off 4 nM. If the recorded Ki is strictly smaller, the label is met; if not, the label is not met.

| COMPOUND | GROUP |
| --- | --- |
| CC1(C)Cc2cc(NC(=O)c3cnn4cccnc34)c(N3CCN(CCN)CC3)cc2O1 | not met |
| COc1cc2c(cc1NC(=O)c1cnn3ccc(Cl)nc13)CC(C)(C)O2 | not met |
| CC(C)(O)[C@H](F)CN1Cc2cc(NC(=O)c3cnn4cccnc34)c(OCC3COC3)cc2C1=O | met |
| COc1cc2c(cc1NC(=O)c1cnn3ccc(N[C@@H]4CCCNC4)nc13)CC(C)(C)O2 | met |
| Cc1nc[nH]c1CN1CCN(c2cc3c(cc2NC(=O)c2cnn4cccnc24)CC(C)(C)O3)CC1 | met |
| CC(C)(O)[C@H](F)CN1Cc2cc(NC(=O)c3cnn4cccnc34)c(C3COC3)cc2C1=O | not met |
| CC(C)(O)[C@H](F)CN1Cc2cc(NC(=O)c3cnn4cccnc34)c(N3CCN(CC(F)(F)F)CC3)cc2C1=O | met |
| Cc1oncc1CN1CCN(c2cc3c(cc2NC(=O)c2cnn4cccnc24)CC(C)(C)O3)CC1 | not met |
| COc1cc2c(cc1NC(=O)c1cnn3ccc(N(C)C4CC4)nc13)CC(C)(C)O2 | not met |
| CCOc1cc2c(cc1NC(=O)c1cnn3cccnc13)CN(C[C@@H](F)C(C)(C)O)C2=O | met |
| COc1cc2c(cc1NC(=O)c1cnn3ccc(N)nc13)CC(C)(C)O2 | not met |
| Cc1ccc(-c2cc3c(cc2NC(=O)c2cnn4cccnc24)CC(C)(C)O3)nc1 | not met |
| CC(C)(O)[C@H](F)CN1Cc2cc(NC(=O)c3cnn4cccnc34)c(OC3CNC3)cc2C1=O [Example 73, hydrochloride] | met |
| Cn1cc(Oc2cc3c(cc2NC(=O)c2cnn4cccnc24)CN(C[C@@H](F)C(C)(C)O)C3=O)cn1 | met |
| Cc1ccc(=O)[nH]c1CN1CCN(c2cc3c(cc2NC(=O)c2cnn4cccnc24)CC(C)(C)O3)CC1 | not met |

---

Target: human IRAK4 (Homo sapiens (Human), UniProt Q9NWZ3)
Assay: IRAK4 kinase inhibition, Transcreener fluorescence polarization (ADP)
Type: biochemical
Conditions: recombinant full-length His6-IRAK4 1.25 nM; 125 uM ATP; 125 uM peptide; 90 min; ATP Km 642 uM; read-out: IRAK4 Ki
Categories are assigned from the measured Ki using these intervals: low: < 4 nM; mid: ≥ 4 nM and < 8 nM; high: ≥ 8 nM

| SMILES_REPR | GROUP |
| --- | --- |
| CC(C)(O)[C@H](F)CN1Cc2cc(NC(=O)c3cnn4cc(O)cnc34)c(N3CCOCC3)cc2C1=O | mid |
| CC1(C)Cc2cc(NC(=O)c3cnn4cccnc34)c(OC[C@H]3C[C@@H]4NCCO[C@H]4C3)cc2O1 | high |
| CC(=O)Nc1ccn2ncc(C(=O)Nc3cc4c(cc3N(C)C)C(=O)N(C[C@@H](F)C(C)(C)O)C4)c2n1 | mid |
| CCc1oncc1CN1CCN(c2cc3c(cc2NC(=O)c2cnn4cccnc24)CN(C[C@@H](F)C(C)(C)O)C3=O)CC1 | mid |
| CC(C)(O)[C@H](F)CN1Cc2cc(NC(=O)c3cnn4cccnc34)c(OC(F)F)cc2C1=O | low |
| CN(C)CCN1CCN(c2cc3c(cc2NC(=O)c2cnn4cccnc24)CC(C)(C)O3)CC1 | high |
| COc1cc2c(cc1NC(=O)c1cnn3ccc(NCCN)nc13)CC(C)(C)O2 | low |
| CC(C)Oc1cc2c(cc1NC(=O)c1cnn3cccnc13)CN(C[C@@H](F)C(C)(C)O)C2=O | low |
| CN1C[C@H](COc2cc3c(cc2NC(=O)c2cnn4cccnc24)CC(C)(C)O3)CC1=O | high |
| CC(C)(O)[C@H](F)CN1Cc2cc(NC(=O)c3cnn4cccnc34)c(O[C@@H]3CCOC3)cc2C1=O | low |
| CC[C@@H]1CC(=O)NN1C1CCN(c2cc3c(cc2NC(=O)c2cnn4cccnc24)CC(C)(C)O3)CC1 | high |
| CO[C@@H]1C[C@@H]2CN(c3cc4c(cc3NC(=O)c3cnn5cccnc35)CN(C[C@@H](F)C(C)(C)O)C4=O)CCN2C1 | mid |
| O=C1CCc2cc(NC(=O)c3cnn4cccnc34)c(N3CCOCC3)cc2N1 | high |
| CC(C)(O)[C@H](F)CN1Cc2cc(NC(=O)c3cnn4cccnc34)c(O[C@H]3C[C@@H](Cl)C3)cc2C1=O | low |

# credit: patent US11034698B2
